Reference source: paper PMC12311865

# Target desc: OATP2B1 (Homo sapiens)
# Construct: expressed in transfected cells; host or cells: A431
# Sequence (O94956 whole entry): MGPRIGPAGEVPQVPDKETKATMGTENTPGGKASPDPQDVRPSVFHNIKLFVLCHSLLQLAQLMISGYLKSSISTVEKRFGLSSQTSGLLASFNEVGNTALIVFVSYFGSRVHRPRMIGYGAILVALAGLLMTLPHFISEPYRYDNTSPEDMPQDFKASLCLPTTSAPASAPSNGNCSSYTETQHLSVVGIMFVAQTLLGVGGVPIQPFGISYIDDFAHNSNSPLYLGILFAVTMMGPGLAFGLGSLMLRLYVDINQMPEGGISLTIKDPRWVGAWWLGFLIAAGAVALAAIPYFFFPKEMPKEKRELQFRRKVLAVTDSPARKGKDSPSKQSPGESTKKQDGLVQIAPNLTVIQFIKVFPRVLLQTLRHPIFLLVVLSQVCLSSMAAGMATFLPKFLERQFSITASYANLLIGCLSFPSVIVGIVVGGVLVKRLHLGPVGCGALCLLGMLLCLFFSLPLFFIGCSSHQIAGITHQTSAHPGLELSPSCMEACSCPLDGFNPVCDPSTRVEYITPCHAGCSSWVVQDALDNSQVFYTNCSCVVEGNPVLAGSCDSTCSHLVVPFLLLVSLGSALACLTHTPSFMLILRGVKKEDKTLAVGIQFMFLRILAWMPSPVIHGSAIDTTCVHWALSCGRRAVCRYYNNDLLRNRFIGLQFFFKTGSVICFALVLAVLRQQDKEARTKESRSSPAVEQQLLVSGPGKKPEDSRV
# Experiment notes: OATP2B1-mediated pyranine uptake in overexpressing A431 cells
# Format: cell-based
# Measurement parameters: pyranine 20 μM; 15 min; A431 cells; read-out: IC50 for OATP2B1
Measured endpoint: IC50 (nM)
A number alone suffices; assume nM.

INPUT: IC50 of C[C@H]1CCCC(=O)CCC/C=C/c2cc(O[C@@H]3O[C@H](C(=O)O)[C@@H](O)[C@H](O)[C@H]3O)cc(O)c2C(=O)O1 [Z14GA, Zearalenone-14-glucuronide] on OATP2B1 (Homo sapiens)?
OUTPUT: 1100

* * *

# Target desc: BCRP (Homo sapiens, UniProt Q9UNQ0)
# Construct: made in house; host or cells: Sf9 insect cells (baculovirus)
# Sequence (Q9UNQ0 1-655): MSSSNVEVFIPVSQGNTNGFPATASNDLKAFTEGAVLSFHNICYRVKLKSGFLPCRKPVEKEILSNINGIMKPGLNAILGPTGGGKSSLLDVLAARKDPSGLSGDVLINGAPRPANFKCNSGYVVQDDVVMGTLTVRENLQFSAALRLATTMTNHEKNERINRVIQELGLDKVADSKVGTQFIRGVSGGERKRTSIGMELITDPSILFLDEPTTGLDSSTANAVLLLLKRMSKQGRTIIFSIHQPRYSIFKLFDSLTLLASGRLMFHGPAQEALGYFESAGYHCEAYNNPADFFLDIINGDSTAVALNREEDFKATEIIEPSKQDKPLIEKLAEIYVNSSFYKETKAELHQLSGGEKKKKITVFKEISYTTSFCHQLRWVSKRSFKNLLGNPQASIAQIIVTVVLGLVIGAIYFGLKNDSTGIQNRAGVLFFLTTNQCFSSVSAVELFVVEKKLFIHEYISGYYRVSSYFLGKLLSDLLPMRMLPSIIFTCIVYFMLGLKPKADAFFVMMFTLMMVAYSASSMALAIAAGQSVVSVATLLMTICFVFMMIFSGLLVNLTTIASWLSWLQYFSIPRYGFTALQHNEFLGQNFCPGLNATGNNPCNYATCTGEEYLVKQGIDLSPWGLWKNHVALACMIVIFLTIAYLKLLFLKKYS
# Experiment notes: BCRP-mediated LY vesicular transport (Sf9 membrane vesicles)
# Type: biochemical
# Measurement parameters: human; 50 μM; LY 10 μM; read-out: inhibition of BCRP-driven vesicular uptake of LY
Measured endpoint: inhibition at 10 min, 50 μM

INPUT: # inhibition at 10 min, 50 μM lookup, item C[C@H]1CCCC(=O)CCC/C=C/c2cc(OS(=O)(=O)O)cc(O)c2C(=O)O1 [Z14S, zearalenone-14-sulfate]
OUTPUT: > 90%

INPUT: For the compound shown here, C[C@H]1CCCC(=O)CCC/C=C/c2cc(O)cc(O)c2C(=O)O1 [ZEN, Zearalenone] , give the reported inhibition at 10 min, 50 μM.
OUTPUT: > 90%
